# SYSTEM UNDER TEST: HLA-A3 class I molecule (Homo sapiens, UniProt P04439)
# TEST DESCRIPTION: class I binding assay, HLA-A3
# DETAILS: Table 2 MAGE CTL targets, column A3; unit not given
MEASURED ATTRIBUTE: A3 (binding to class I molecule)

A selection of reference data follows.
PRIMARY SEQUENCE	RESULT NUMBER
RVRFFFPSLR [Id 1072.37, MAGE-1 C-terminal peptide, position 290, 10-mer, motif A03/11]	0.4300
YVIKVSARVR [Id 1072.41, MAGE-1 C-terminal peptide, position 283, 10-mer, motif A03]	0.0190
ALAETSYVK [Id 1072.38, MAGE-1 C-terminal peptide, position 271,9-mer, motif A03/11]	0.3100
LVQEKYLEY [Id 1072.42, MAGE-1 peptide, position 243,9-mer, motif A11]	0.0026

1: TSYVKVLEY [Id 1072.36, MAGE-1 C-terminal peptide, position 275,9-mer, motif A03/11]
2: RALAETSYVK (RALAETSYVKVK) [Id 1072.39, MAGE-1 C-terminal peptide, position 270, 10-mer, motif A03/11]
Task: Could you tell me which of these two has the smaller A3 (binding to class I molecule) figure? First: 1 Second: 2 # reply format: chosen label
Result: 2
